# credit: paper PMC12416549

Test system: T1, TNFR1 (Homo sapiens, UniProt P19438)
T1 chain: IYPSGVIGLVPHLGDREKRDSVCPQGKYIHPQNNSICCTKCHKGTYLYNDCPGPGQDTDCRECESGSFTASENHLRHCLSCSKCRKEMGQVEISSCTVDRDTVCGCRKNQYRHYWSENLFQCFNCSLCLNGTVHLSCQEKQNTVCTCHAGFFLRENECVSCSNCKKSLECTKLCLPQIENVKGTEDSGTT
Test protocol: yeast display SC50
Endpoint name: apparent Kd (screen) (nM)

Please list apparent Kd (screen) recorded for the binder E95C (designed binder) MTLQELLREEALRRAEAEAFRYALELLAEKFPEQKEYLLDLAEEIESQIRSLSGVDVEDVRKFLDKEWAWVKELLAEHPAELAEVEAARAARLACLRAEVEAKVAA
0.49

Please list apparent Kd (screen) recorded for the binder A15F (designed binder) MTLQELLREEALRRFEAEAFRYALELLAEKFPEQKEYLLDLAEEIESQIRSLSGVDVEDVRKFLDKEWAWVKELLAEHPAELAEVEAARAARLAELRAEVEAKVAA
0.653

Please list apparent Kd (screen) recorded for the binder Q4M (designed binder) MTLMELLREEALRRAEAEAFRYALELLAEKFPEQKEYLLDLAEEIESQIRSLSGVDVEDVRKFLDKEWAWVKELLAEHPAELAEVEAARAARLAELRAEVEAKVAA
0.49

Please list apparent Kd (screen) recorded for the binder V104N (designed binder) MTLQELLREEALRRAEAEAFRYALELLAEKFPEQKEYLLDLAEEIESQIRSLSGVDVEDVRKFLDKEWAWVKELLAEHPAELAEVEAARAARLAELRAEVEAKNAA
0.593
